Entry source: patent US20250320213A1

Tested on: CCL17 secretion in peripheral human whole blood
assay-details: Human Whole Blood (HWB) CCL17 TR-FRET Assay (IL-13 stimulated CCL17 secretion)
Type: cell-based
experimental-conditions: human whole blood, IL-13 stimulated, 48 hours
Where a name gives a salt, the structure may show the parent alone.
Catalogue of molecules with associated IC50
Please respond with the number in nM and leave the unit unwritten.

Some solved entries appear below for comparison.
CCC1CN(c2ccc(C(=O)N(C)C)cn2)Cc2c(C(=O)NCc3ccc(NC(=O)N(C)C)cc3)nn(CC)c21 (single isomer, unassigned) [Example 313]
15
CNC(=O)c1ccc(CNC(=O)c2nn(C(C)C)c3c2CN(c2ccc(C(=O)N(C)C)cn2)CC3C(F)(F)F)cc1 (single isomer, unassigned) [Example 356]
3310
CC(C)n1nc(C(=O)NCc2ccc(NC(=O)N3CCC(OC4CCNCC4)CC3)cc2)c2c1[C@@H](C)CN(c1ccc(C(=O)N(C)C)cc1)C2 [Example 485, hydrochloride]
4

Query IC50 on CCL17 secretion in peripheral human whole blood for CCn1nc(C(=O)NCc2ccc(NC(=O)N(C)C)cc2)c2c1[C@H]1CC[C@H]1N(c1ccc(C(=O)N(C)C)cn1)C2 (single isomer, unassigned) [Example 230] 277
